As shown below, each of these compounds has a reported Z score value.
System: Plasmodium falciparum
TEST PROTOCOL: Primary screen in NF54 nanoGlo assay, in single point, at 2uM, 72h
Assay type: functional, Erythrocyte
PARTICULARS: timepoint 72 hour
In all, about 150,000 compounds went through this assay and about 540 (0.36%) showed an effect of 50% or more. This is one part of a sample in which strong results are shown more often than they occur.
READOUT NAME: Z score

[
  {
    "COMPOUND": "O=C1C2C3C=CC(C3=C3CCCCC3)C2C(=O)N1c1cccc(Cl)c1 (stereo unspecified)",
    "TARGET": "Plasmodium falciparum",
    "RESULT": -1.24
  },
  {
    "COMPOUND": "CCN1CCN(C2CCN(c3ncc(F)c(OC)n3)CC2)CC1",
    "TARGET": "Plasmodium falciparum",
    "RESULT": -7.32
  },
  {
    "COMPOUND": "CNC(=O)[C@H]1CCN(c2ncc(F)c(OC)n2)C1",
    "TARGET": "Plasmodium falciparum",
    "RESULT": 1.93
  },
  {
    "COMPOUND": "CN1CC[C@H](CN(C)Cc2ccc3cc(O)ccc3c2)C1",
    "TARGET": "Plasmodium falciparum",
    "RESULT": -7.71
  },
  {
    "COMPOUND": "Cc1cccc(N2C(=O)C3C4C=CC(C4=C4CCCCC4)C3C2=O)c1 (stereo unspecified)",
    "TARGET": "Plasmodium falciparum",
    "RESULT": 0.03
  },
  {
    "COMPOUND": "Cc1ccc(N2C(=O)C3C4C=CC(C4=C4CCCCC4)C3C2=O)cc1Cl (stereo unspecified)",
    "TARGET": "Plasmodium falciparum",
    "RESULT": 1.34
  },
  {
    "COMPOUND": "Cc1ccn2c(C(=O)NCc3cc(F)ccc3C)nnc2n1",
    "TARGET": "Plasmodium falciparum",
    "RESULT": 3.23
  },
  {
    "COMPOUND": "CN1CCC(N2CCN(Cc3ccc4cc(O)ccc4c3)CC2)CC1",
    "TARGET": "Plasmodium falciparum",
    "RESULT": -8.27
  },
  {
    "COMPOUND": "CN(Cc1ccc2cc(O)ccc2c1)C[C@H]1CCCCO1",
    "TARGET": "Plasmodium falciparum",
    "RESULT": -0.87
  },
  {
    "COMPOUND": "c1cc(CN2CCC[C@H](CN3CCCC3)C2)co1",
    "TARGET": "Plasmodium falciparum",
    "RESULT": 0.59
  },
  {
    "COMPOUND": "Oc1ccc2cc(CN3CCC[C@H](CN4CCCC4)C3)ccc2c1",
    "TARGET": "Plasmodium falciparum",
    "RESULT": -3
  }
]

====

Tested on: Plasmodium falciparum
TEST PROTOCOL: Primary screen in NF54 nanoGlo assay, in single point, at 2uM, 72h
Format: functional, Erythrocyte
PARTICULARS: timepoint 72 hour
Among all 150,000 compounds or so, about 540 (0.36%) showed an effect of 50% or more. For the sample, strong results were picked, then their nearest neighbours and some compounds at random.
As shown below, each of these compounds has a reported % Inhibition value.

[
  {
    "COMPOUND": "COc1ccc(OC)c(CNc2cc[nH]n2)c1",
    "% Inhibition": "-5%"
  },
  {
    "COMPOUND": "COC1(C)CC(N(C)C(=O)[C@@H]2Cc3cncn3C(=O)N2)C1(C)C (stereo partly specified)",
    "% Inhibition": "-3%"
  },
  {
    "COMPOUND": "COc1ccccc1CNC(=O)c1cc(C)nc2c(-c3ccc(C)cc3)cccc12",
    "% Inhibition": "12%"
  },
  {
    "COMPOUND": "CCNC(=O)O[C@@H]1CC[C@]2(C)C(CC[C@@H](O)[C@H]2CC(=O)NCc2cccs2)[C@]1(C)CO (stereo partly specified)",
    "% Inhibition": "-4%"
  },
  {
    "COMPOUND": "O=C(Nc1nc2cccc(Cl)c2o1)c1cccc(F)c1",
    "% Inhibition": "89%"
  },
  {
    "COMPOUND": "Cc1nn(-c2ccc(Cl)cc2)cc1-c1noc(C(=O)NC2CCC(C)CC2)n1 (stereo unspecified)",
    "% Inhibition": "-10%"
  },
  {
    "COMPOUND": "Cc1ccc(NC(=O)c2cccc(F)c2)c(-c2nc3ccccc3nc2O)c1",
    "% Inhibition": "-15%"
  },
  {
    "COMPOUND": "Cc1cc(CN(C)C(=O)[C@H]2CC(=O)N(c3ccccc3)C2)no1",
    "% Inhibition": "-3%"
  },
  {
    "COMPOUND": "CC(C)n1ncc2c1CC(NC(=O)CCC1CCCO1)CC2 (stereo unspecified)",
    "% Inhibition": "-3%"
  },
  {
    "COMPOUND": "Cc1nnc(COc2cccc3c2OCCO3)s1",
    "% Inhibition": "-12%"
  },
  {
    "COMPOUND": "CNC(=O)c1cc(S(=O)(=O)N2CC=CC2)cn1C",
    "% Inhibition": "-4%"
  }
]
